Let's look at some compounds and their measured HPLC.
Experiment: Storage stability of Compound 1 forms and amorphous salts at 25° C./60% RH for 14 days (HPLC, observation)
Details: 0 days at 25° C./60% RH
Protocol: This initial characterization was followed by storage at 25° C./60% relative humidity (RH) for 14 days with analysis by HPLC and XRPD after 7 and 14 days. FIG. 4A is the XRPD after 14 days at 25° C./60% (RH). The samples were then frozen with the solvent removed by lyophilization. The samples were then subjected to storage at 25° C./60% relative humidity (RH) for 14 days with analysis by HPLC and XRPD after 7 (FIG. 4B) and 14 days (FIG. 5A).

{"COMPOUND": "CNc1nc(N)nc2c1ncn2[C@@H]1O[C@H](CO[P@@](=O)(N[C@@H](C)C(=O)OC(C)C)Oc2ccccc2)[C@@H](O)[C@@]1(C)F [Sample 1-9]", "HPLC": 98.7}
{"COMPOUND": "CNc1nc(N)nc2c1ncn2[C@@H]1O[C@H](CO[P@@](=O)(N[C@@H](C)C(=O)OC(C)C)Oc2ccccc2)[C@@H](O)[C@@]1(C)F [Sample 1-2]", "HPLC": 99.1}
{"COMPOUND": "CNc1nc(N)nc2c1ncn2[C@@H]1O[C@H](CO[P@@](=O)(N[C@@H](C)C(=O)OC(C)C)Oc2ccccc2)[C@@H](O)[C@@]1(C)F [Sample 1-1]", "HPLC": 98.6}
{"COMPOUND": "CNc1nc(N)nc2c1ncn2[C@@H]1O[C@H](CO[P@@](=O)(N[C@@H](C)C(=O)OC(C)C)Oc2ccccc2)[C@@H](O)[C@@]1(C)F [Sample 1-3]", "HPLC": 99.7}

These measurements were taken from patent US20260091050A1.
